target-or-system: human kinase Mps-1 (Homo sapiens)
Construct: N-terminally GST-tagged human full length recombinant Mps-1 kinase; GST (N); purchased Invitrogen, Karslruhe, Germany PV4071
Sequence (P33981 whole entry): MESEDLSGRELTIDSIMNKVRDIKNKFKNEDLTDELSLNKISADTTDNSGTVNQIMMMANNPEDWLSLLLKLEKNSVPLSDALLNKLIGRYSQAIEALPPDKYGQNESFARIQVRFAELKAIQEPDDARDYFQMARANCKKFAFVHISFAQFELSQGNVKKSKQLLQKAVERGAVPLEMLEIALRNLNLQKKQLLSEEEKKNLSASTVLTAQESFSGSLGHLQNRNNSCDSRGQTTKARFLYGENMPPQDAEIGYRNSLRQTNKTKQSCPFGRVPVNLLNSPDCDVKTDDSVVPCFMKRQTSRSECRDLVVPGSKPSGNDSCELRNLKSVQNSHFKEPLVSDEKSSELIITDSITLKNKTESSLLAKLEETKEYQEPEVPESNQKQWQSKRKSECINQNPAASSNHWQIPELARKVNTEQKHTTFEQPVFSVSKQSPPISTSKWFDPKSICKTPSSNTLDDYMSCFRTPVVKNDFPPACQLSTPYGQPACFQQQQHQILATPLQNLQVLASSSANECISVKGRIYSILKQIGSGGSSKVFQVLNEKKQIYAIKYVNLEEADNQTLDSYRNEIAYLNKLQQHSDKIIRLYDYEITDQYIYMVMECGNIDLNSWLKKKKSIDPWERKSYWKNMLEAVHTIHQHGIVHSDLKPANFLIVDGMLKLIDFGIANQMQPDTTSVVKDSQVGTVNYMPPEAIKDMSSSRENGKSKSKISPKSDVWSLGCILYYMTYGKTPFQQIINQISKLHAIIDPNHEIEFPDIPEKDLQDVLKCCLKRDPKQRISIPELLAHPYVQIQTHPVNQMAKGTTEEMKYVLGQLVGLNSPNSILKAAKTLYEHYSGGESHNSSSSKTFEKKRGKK
protocol: Mps-1 kinase assay (TR-FRET)
Format: biochemical
protocol-conditions: Mps1 IC50 [nM], N-terminally GST-tagged human full length recombinant Mps-1; 10 μM ATP; 1 μM biotinylated peptide substrate; 60 min at 22° C.
property-label: IC50
Quick note: number first, unit second.

## Input Look up and report measured IC50 for this entry: CC(C)(O)CNc1nccn2c(-c3ccc(C(=O)NC4CC4)c(Cl)c3)cnc12
## Output 538 nM

## Input Please report IC50 for the following molecule: Cc1cccc(CNc2nccn3c(-c4ccc(C(=O)NC5CC5)cc4)cnc23)c1
## Output 100 nM

## Input Consider the molecule O=C(NC1CC1)c1ccc(-c2cnc3c(NCc4cccs4)nccn23)cc1O . State its measured IC50.
## Output 35.8 nM

## Input Provide measured IC50 value, entry: O=C(NC1CC1)c1ccc(-c2cnc3c(NCCCN4CCCC4=O)nccn23)cc1O
## Output 593 nM

## Input Consider the molecule Cc1cc(-c2cnc3c(NCC4CCCO4)nccn23)ccc1C(=O)NC1CC1 (stereo not shown) . State its measured IC50.
## Output 80.8 nM

## Input Give a short answer stating reported IC50 for CC(C)(C)CNc1nccn2c(-c3ccc(C(=O)NC4CC4)cc3)cnc12 .
## Output 30.2 nM

## Input Quote IC50 reported for O=C(NC1CC1)c1ccc(-c2cnc3c(NCCC(F)(F)F)nccn23)cc1Cl please.
## Output 43 nM

## Input Complete the entry with IC50 for COCCCNc1nccn2c(-c3ccc(C(=O)NC4CC4)c(C)c3)cnc12
## Output 141 nM

## Input State, in one line, measured IC50 of Cc1cc(-c2cnc3c(NCc4ccco4)nccn23)ccc1C(=O)NC1CC1
## Output 28.1 nM

## Input Please give the documented IC50 of CC(C)CNc1nccn2c(-c3ccc(C(=O)NC4CC4)c(Cl)c3)cnc12
## Output 15.7 nM

## Input Give the reported value of IC50 for this record: CC(O)CNc1nccn2c(-c3ccc(C(=O)NC4CC4)c(O)c3)cnc12 (stereo not shown)
## Output 96.9 nM

## Input Write down IC50 measured for item Cc1cc(-c2cnc3c(NCC(C)(C)O)nccn23)ccc1C(=O)NC1CC1
## Output 171 nM

## Input Item Cc1cc(-c2cnc3c(NCc4ccccc4F)nccn23)ccc1C(=O)NC1CC1 : provide IC50
## Output 31.6 nM

## Input Supply reported IC50 belonging to this molecule: Cc1cc(-c2cnc3c(NCc4cccnc4)nccn23)ccc1C(=O)NC1CC1
## Output 123 nM

## Input // fetch IC50 given entry Cc1cc(-c2cnc3c(NCc4ccncc4)nccn23)ccc1C(=O)NC1CC1
## Output 166 nM

## Input // Input: CCOC(C)CNc1nccn2c(-c3ccc(C(=O)NC4CC4)c(O)c3)cnc12 (stereo not shown) . Output its IC50 only.
## Output 268 nM

## Input Provide one value: measured IC50 of O=C(NC1CC1)c1ccc(-c2cnc3c(NCc4ccc(Cl)s4)nccn23)cc1Cl
## Output 25 nM

## Input Indicate the recorded IC50 value for this molecule: Cc1cc(-c2cnc3c(NCC(O)C(F)(F)F)nccn23)ccc1C(=O)NC1CC1 (stereo not shown)
## Output 36.7 nM

## Input Assign IC50 to the following record: O=C(NC1CC1)c1ccc(-c2cnc3c(NCCCN4CCCC4=O)nccn23)cc1
## Output 1270 nM

## Input Provide one value: measured IC50 of Cc1cc(-c2cnc3c(NCC(C)O)nccn23)ccc1C(=O)NC1CC1 (stereo not shown)
## Output 101 nM

## Input // Input: CC(C)CNc1nccn2c(-c3ccc(C(=O)NC4CC4)c(O)c3)cnc12 . Output its IC50 only.
## Output 15.5 nM

## Input Note IC50 for the molecule shown: O=C(NC1CC1)c1ccc(-c2cnc3c(NCCCN4CCOCC4)nccn23)cc1O
## Output 304 nM

## Input Kindly indicate its recorded IC50. Item: O=C(NC1CC1)c1ccc(-c2cnc3c(NCc4ccccc4F)nccn23)cc1Cl
## Output 93.8 nM

## Input Entry Cc1cc(-c2cnc3c(NCCC(C)C)nccn23)ccc1C(=O)NC1CC1 needs its IC50 filled in; supply it.
## Output 13.2 nM

## Input Provide measured IC50 value, entry: O=C(NC1CC1)c1ccc(-c2cnc3c(NCCCc4ccccc4)nccn23)cc1
## Output 90.1 nM

## Input Write down IC50 measured for item O=C(NC1CC1)c1ccc(-c2cnc3c(NCC(O)COc4ccccc4)nccn23)cc1 (stereo not shown)
## Output 412 nM

## Input Using known records, supply IC50 for COc1cc(CNc2nccn3c(-c4ccc(C(=O)NC5CC5)cc4)cnc23)cc(OC)c1OC
## Output 429 nM

## Input Assign IC50 to the following record: O=C(NC1CC1)c1ccc(-c2cnc3c(NCc4ccccc4F)nccn23)cc1
## Output 11 nM

## Input Respond only with IC50 recorded for N#CCCNc1nccn2c(-c3ccc(C(=O)NC4CC4)c(Cl)c3)cnc12
## Output 272 nM

## Input Tell us which IC50 value is on record for O=C(NC1CC1)c1ccc(-c2cnc3c(NCCO)nccn23)cc1O
## Output 414 nM

## Input Give a short answer stating reported IC50 for COCCNc1nccn2c(-c3ccc(C(=O)NC4CC4)c(Cl)c3)cnc12 .
## Output 593 nM

## Input Give a short answer stating reported IC50 for Cn1ccc(CNc2nccn3c(-c4ccc(C(=O)NC5CC5)c(Cl)c4)cnc23)n1 .
## Output 767 nM

## Input Quick one: give measured IC50 for Cc1cc(-c2cnc3c(NCc4c(F)cccc4F)nccn23)ccc1C(=O)NC1CC1
## Output 47.1 nM

## Input Indicate the recorded IC50 value for this molecule: Cc1cc(-c2cnc3c(NCCC#N)nccn23)ccc1C(=O)NC1CC1
## Output 49.7 nM
